Exercise: state measured pEC50 for each of the compounds provided.
Tested on: SNU-1 (Gastric)
Experiment summary: Cell line screen, SNU-1
Assay type: cell-based
Condition: Homo sapiens, SNU1, AICDA Expression Negative
Worth noting: pEC50 values are minus log10 of concentrations stated in mol/L.

Entry CC(C)OC(=O)Nc1ccc(-c2cnc([C@H]3CC[C@H](NC(=O)OC(C)C)CC3)s2)c(S(=O)(=O)NC(C)(C)C)c1 [Ex. 67A] ; pEC50 = 5.53

Entry CC(C)OC(=O)N[C@H]1CC[C@H](c2ncc(-c3ccc(NC(=O)NCc4ccccc4)cc3S(=O)(=O)NC(C)(C)C)s2)CC1 [Ex. 66A] ; pEC50 = 6.22
